growth by entry:
# Test system: MDA-MB-231 breast
# assay-notes: NCI-60 one-dose screen, 48 h (100 = growth as untreated, 0 = no growth, -100 = all killed)
# run-conditions: 10 µM unless noted
Compounds without any hit were thinned out: in the full panel of roughly 83,000, 20% have a hit.
measured-property: growth (%)

> print(dat)
                                    molecule  recorded.measurement
 1  CCOc1nc(-c2ccccc2)cc2c(O)c(C(=O)N/N=C/c3ccccc3O)[nH]c(=O)c12                   101
 2  COc1ccc(NC(=O)/C=C(C)/C=C/C=C(C)/C=C/C2=C(C)CCCC2(C)C)cc1                  38.3
 3  COc1ccc(C2C3(C#N)C(N)=NC(=C(C#N)C#N)C23C#N)cc1OC (stereo not given)                  93.2
 4  CC(=O)OCC(=O)[C@@]1(O)[C@H](C)C[C@H]2[C@@H]3C=C(C)C4=Cc5c(cnn5-c5ccc(F)cc5)C[C@]4(C)[C@H]3[C@@H](O)C[C@@]21C                  53.1
 5  CC(CCN1CCN(CCC(C)CC(C)(C)C)C1CC(C)CC(C)(C)C)CC(C)(C)C (stereo not given)                   105
 6  CCCCN(CCCC)CCCNc1c2c(nc3ccc(Cl)cc13)CCCC2                  70.5
 7      CCOC(=O)c1sc(NS(=O)(=O)c2ccccc2)nc1C                   107
 8                Clc1ccc(N/N=C/c2ccccn2)nc1                  34.5
 9     OCC(O)C(O)CC1SCCS1 (stereo not given)                   114
10            O=C(CCC(=O)N(CCO)CCO)N(CCO)CCO                   109

----------
# System: RPMI-8226 leukemia
# assay-notes: NCI-60 one-dose screen, 48 h
# run-conditions: 10 µM unless noted
This is part of a sample that, as a whole, favours compounds with a hit. Of some 83,000 tested, about 20% had one in any assay. The source made the active and inactive calls. The calls were made as follows: active = growth percent below 10; inactive = the rest.
Outcomes: 1 (active), 0 (inactive)

> print(dat)
                                    molecule       tested.target  label.value
 1                                 O=C1CCNC1  RPMI-8226 leukemia            0
 2  CN1C(=O)C(=Cc2coc3ccc(Br)cc3c2=O)C(=O)N(C)C1=O  RPMI-8226 leukemia            0
 3  CC1(C)Oc2cc3oc(=O)ccc3cc2C[C@@H]1OCCOS(=O)(=O)c1ccc(C#N)cc1  RPMI-8226 leukemia            0
 4    N=C(N)c1ccc(-c2ccc(-c3ccc(Cl)cc3)s2)s1  RPMI-8226 leukemia            1
 5  COc1cc(OC)cc(-c2ccc(-c3ccc(C(=N)N)cc3)s2)c1  RPMI-8226 leukemia            1
 6  O=C(N/N=C\c1ccc(Cl)cc1)C(=O)N/N=C\c1ccc(Cl)cc1  RPMI-8226 leukemia            0
 7  COc1cc(N2C(=O)C=CC2=O)ccc1N1C(=O)C=CC1=O  RPMI-8226 leukemia            0
 8  CN1CCN(Cc2ccc(NC(=O)c3cncc(C#Cc4c(N)ncc5ccc(F)cc45)c3)cc2C(F)(F)F)CC1  RPMI-8226 leukemia            1
 9  CC(=O)CCS(=O)c1ccccc1 (configuration not stated)  RPMI-8226 leukemia            0
10  CCCC(CCC)Oc1ccc(CCCC2=C(O)c3ccccc3C(=O)C2=O)cc1  RPMI-8226 leukemia            0
11  O=C(N/N=C/c1cc(Cl)ccc1O)C(=O)N/N=C/c1cc(Cl)ccc1O  RPMI-8226 leukemia            0
12                                 C=CCN(C)C  RPMI-8226 leukemia            0
13  COC(c1ccccc1)C(Br)C(=O)c1ccccc1 (configuration not stated)  RPMI-8226 leukemia            0
14      CCN(CC)CCNc1ncnc2c1cnn2-c1ccc(Cl)cc1  RPMI-8226 leukemia            0
15  O=C(/C=C/c1cccc(O)c1)c1cccc(-n2cc(-c3ccc(Cl)cc3)[nH]c2=O)c1  RPMI-8226 leukemia            1
16  CCCCCCCCc1ccc(OCCOCC[N+](C)(C)CC)cc1 (tested in a mixture with another compound)  RPMI-8226 leukemia            1
17      CCOC(=O)c1sc(NS(=O)(=O)c2ccccc2)nc1C  RPMI-8226 leukemia            0
18  CCN(CCO)CCNc1ccc(C)c2sc3cc(OC)ccc3c(=O)c12  RPMI-8226 leukemia            0
19  O=C(C(=O)N1CCOCC1)c1ccc(O[C@H]2O[C@H](CO)[C@@H](O)[C@H](O)[C@@H]2O)cc1  RPMI-8226 leukemia            0
20  CCOC(=O)c1cc(C(=O)c2ccc(Br)cc2)n2cc(C)cc(C)c12  RPMI-8226 leukemia            0
21  COc1ccc(NC(=O)/C=C(C)/C=C/C=C(C)/C=C/C2=C(C)CCCC2(C)C)cc1  RPMI-8226 leukemia            0
22            O=C(CCC(=O)N(CCO)CCO)N(CCO)CCO  RPMI-8226 leukemia            0

----------
# Test system: UACC-62 melanoma
# assay-notes: NCI-60 one-dose screen, 48 h
# run-conditions: 10 µM unless noted
The panel holds about 83,000 compounds, 20% with a hit somewhere; the sample as a whole holds those more often. Calls of active or inactive are those of the source. Rule for the calls: active = growth percent below 10; inactive = the rest.
Outcomes: YES (active), NO (inactive)

> print(dat)
                                    molecule  label.value
 1  Nc1cc(N)c2nc(-c3ccccc3)c(NCCc3ccc(Cl)c(Cl)c3)nc2c1          YES
 2  CCOc1ccc(/C=N/NC(=O)c2cccc3ccccc23)cc1OCC           NO
 3  CCCNC(=O)Oc1ccc(/C(=C(/C)Cc2ccc(OC)cc2)c2ccc(OCCN3CCCCC3)cc2)cc1           NO
 4  O=C(CCCC(=O)Nc1ccc(Cn2nnc3cc(Cl)c(Cl)cc32)cc1)Nc1ccc(CN2N=NC3C=C(Cl)C(Cl)=CC32)cc1 (stereo not given)           NO
 5  C[C@]12C=CC(=O)C=C1[C@@H](F)C[C@@H]1[C@@H]2[C@@H](O)C[C@@]2(C)[C@H]1CC[C@]2(O)C(=O)CO           NO
 6                     Cc1ccc(CC(=O)O)c(C)c1           NO
 7  C[C@@H](c1ccc2c(c1)[nH]c1ccc(Cl)cc12)c1nc2ccc(Cl)cc2[nH]1           NO
 8        CCCCCCCCCCCCCCCCCC(=O)Nc1ccc(O)cc1           NO
 9         COc1cccc2c1nc1cccc(OC)c1[n+]2[O-]           NO
10            O=C(/C(Br)=C/c1ccccc1)c1ccccc1          YES

----------
# Tested on: OVCAR-8 ovarian
# assay-notes: NCI-60 one-dose screen, 48 h (100 = growth as untreated, 0 = no growth, -100 = all killed)
# run-conditions: 10 µM unless noted
Compounds without any hit were thinned out: in the full panel of roughly 83,000, 20% have a hit.
growth by entry:

compound	tested-target	growth [%]
CSc1nc(N)n2nccc2n1	OVCAR-8 ovarian	98.5
C/C=C(/C)C(=O)OC1C=C(CO)C(=O)C(OC(=O)C(C)(O)C(C)Cl)C1C(C)C (stereo unspecified)	OVCAR-8 ovarian	3.78
Cc1nc2c(nnn2-c2ccccc2)c2nc(-c3ccc(Cl)cc3)oc(=O)c12	OVCAR-8 ovarian	110
COc1cc2c(cc1OC)C(Cc1cc(OC)c(OC)cc1[N+](=O)[O-])=NCC2	OVCAR-8 ovarian	98
CCOc1ccc2nc3ccc(Cl)cc3nc2c1	OVCAR-8 ovarian	103
COc1cc(NC(C)CCCN)c2nccc(C)c2c1OC (stereo unspecified)	OVCAR-8 ovarian	98.2
C=CCN(C)C	OVCAR-8 ovarian	106
CCC(C)CC(N)O (stereo unspecified)	OVCAR-8 ovarian	107
Ic1ccc(SSc2ccc(I)cc2)cc1	OVCAR-8 ovarian	92.6
Cc1cc2cn3c4ccc(O)cc4[nH]c(=O)c3c2cc1C	OVCAR-8 ovarian	-13.2
CCC(C)C1NC(=O)C(CC(C)C)NC(=O)C(C)NC(=O)C(C(C)C)NC(=O)C(CCCCN)NC(=O)C(CC(C)C)NC(=O)C(C(C)C)NC(=O)[C@H](C)NC(=O)C(C(C)CC)NC(=O)C(CCCN=C(N)N)NC(=O)C(CCCCN)NC(=O)C(CCCN=C(N)N)NC(=O)C(CCCCN)NC(=O)C([C@H](C)CC)NC(=O)C(CCCCN)NC1=O (stereo partly specified)	OVCAR-8 ovarian	11.7
